System: Rattus norvegicus
Assay Comment: Hypoglycemic activity by lowering blood glucose in normal rats by 50% after oral administration.
Assay type: functional
Kindly state ED50 for each of the entries shown.
Respond numerically; units are µmol/kg and should not be typed.

Consider the compound shown here: CC(C)/C=C/C(=O)NCCc1ccc(S(=O)(=O)N2CCN(C3CCCCC3)C2=N)cc1 What is its recorded ED50? 34

Query: ED50; subject: CCCCNC(=O)NCCc1ccc(S(=O)(=O)N2CCN(C3CCCCC3)C2=N)cc1 330

Which measured ED50 value corresponds to C=CC(=O)NCCc1ccc(S(=O)(=O)N2CCN(C3CCCCC3)C2=N)cc1 ? 210

# input compound: COc1ccc(C(=O)NCCc2ccc(S(=O)(=O)N3CCN(C4CCCCC4)C3=N)cc2)cc1OC ; wanted: its ED50 780

Entry under review: CSc1ccccc1C(=O)NCCc1ccc(S(=O)(=O)N2CCN(C3CCCCC3)C2=N)cc1 . Reported ED50? 620

Can you look up the measured ED50 of C/C=C\C(=O)NCCc1ccc(S(=O)(=O)N2CCN(C3CCCCC3)C2=N)cc1 for me? 38

====

Test system: Rattus norvegicus
Assay Comment: Hypoglycemic activity by lowering blood glucose in normal rats by 20% after oral administration.
Type: functional
Value Type: ED20 (mmol/kg)
Kindly answer with a numeric value in mmol/kg, unit omitted.

For the molecule shown here, CCSCC(=O)NCCc1ccc(S(=O)(=O)N2CCN(C3CCCCC3)C2=N)cc1 , give the reported ED20. 0.055

Which ED20 value belongs to CCCCC(=O)NCCc1ccc(S(=O)(=O)N2CCN(C3CCCCC3)C2=N)cc1 ? 0.035

Form field: reported ED20 of N=C1N(C2CCCCC2)CCN1S(=O)(=O)c1ccc(CCNC(=O)CN)cc1 0.39
